Attribution: ChEMBL document CHEMBL1759874

assay: Antioxidant activity assessed as ABTS free radical scavenging activity at 50 uM; format: functional
compounds and their reported Activity

Worked examples follow.
[
  {
    "Compound": "COc1cc(CCC(=O)CC(C)=O)ccc1O",
    "Activity": "3.85 µM/min"
  },
  {
    "Compound": "COc1cc(/C=C/C(O)CC(C)O)ccc1O (centres undefined)",
    "Activity": "6.26 µM/min"
  },
  {
    "Compound": "CC(=O)CC(=O)/C=C/c1ccc(O)c(O)c1",
    "Activity": "7.56 µM/min"
  }
]

Now for another entry.
stdin: For the compound shown here, COc1cc(/C=C/C(=O)CC(C)=O)ccc1O , give the reported Activity.
stdout: 6.04 µM/min
